Tested on: HOP-92
Measurement Protocol: NCI tumour cell line growth inhibition, 48 h
The source made the active and inactive calls. No stated cut-off is given here; in the data, active = GI50 up to about 1.1 µM and inactive = higher.
Outcome field: choose from 1 = active, 0 = inactive

Hi, do you know how COc1cc(C2c3cc4c(cc3OC(N3CCCC3)C2C)OCO4)cc(OC)c1OC (configuration not stated) came out in this test?
1

Hi, do you know how Cc1cn(C(Cc2ccccc2)OCCO)c(=O)[nH]c1=O (configuration not stated) came out in this test?
0

Hi, do you know how `CC[n+]1c(/C=C/c2ccc(N(CCCl)CCCl)cc2)ccc2cc(Br)ccc21` came out in this test?
1

Hi, do you know how `CCCc1c(Cl)nc(Cl)nc1Cl` came out in this test?
0

Hi, do you know how `COC(=O)CN1Cc2cc(C)cc(c2O)CN(CC(=O)OC)Cc2cc(C)cc(c2O)CN(CC(=O)OC)Cc2cc(C)cc(c2O)C1` came out in this test?
0

Hi, do you know how `COc1cc(CNc2nc3ccccc3nc2C(=O)O)cc(OC)c1OC` came out in this test?
0

Hi, do you know how CC1C(c2ccc3c(c2)OCO3)c2cc3c(cc2OC1N1CCOCC1)OCO3 (configuration not stated) came out in this test?
0
